System Under Test: KRAS WT (Homo sapiens (Human), UniProt P01116)
Sequence (P01116-2 other isoform, or with tags, fused parts or gaps): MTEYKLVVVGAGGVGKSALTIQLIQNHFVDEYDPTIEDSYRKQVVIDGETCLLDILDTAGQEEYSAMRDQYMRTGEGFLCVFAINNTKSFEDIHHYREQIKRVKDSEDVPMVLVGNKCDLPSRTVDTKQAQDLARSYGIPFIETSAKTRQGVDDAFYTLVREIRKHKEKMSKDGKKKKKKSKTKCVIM
Assay Notes: KRAS WT Biochemical Assay, BODIPY-GDP Exchange TR-FRET (Example 502; 0.06 nM KRAS WT, 15 nM GDP, 300 nM SOS1, 120-minute incubation)
Reported Conditions: read-out: KRas HTRF IC50
pIC50: −log10 of the molar value.
Please note: Satisfied applies when pIC50 is 8 or greater, and Not satisfied applies otherwise.

1) Cc1c(F)c(N)cc(-c2nc3c4c(nc(OCCCN5C[C@H]6C[C@@H]5CO6)nc4c2F)N2C[C@H]4CC[C@H](N4)[C@H]2[C@H](C)O3)c1C(F)(F)F; Not satisfied
2) C=C1CN2CCC[C@@]2(COc2nc3c4c(nc(-c5cc(O)cc6cccc(CC)c56)c(F)c4n2)O[C@@H](C)[C@@H]2[C@@H]4CC[C@H](CN32)N4)C1; Satisfied
3) C#Cc1c(F)ccc2cc(O)cc(-c3nc4c5c(nc(OC[C@@]67CCCN6C[C@H](F)C7)nc5c3F)N3C[C@H]5CC[C@H](N5)[C@H]3[C@H](C)O4)c12; Satisfied
4) C[C@@H]1Oc2nc(-c3cc(N)cc(F)c3C(F)(F)F)c(F)c3nc(OCC4CCC5N4CCOC5(C)C)nc(c23)N2C[C@H]3CC[C@H](N3)[C@@H]12 (stereo partly shown); Not satisfied
5) Cc1c(F)c(N)cc(-c2nc3c4c(nc(OC[C@@]56C[C@H](F)CN5C[C@H](F)C6)nc4c2F)N2C[C@H]4CC[C@H](N4)[C@H]2[C@H](C)O3)c1C(F)(F)F; Not satisfied
6) Cc1c(F)c(N)cc(-c2nc3c4c(nc(OCC5(CN6CCOC[C@H]6C)CC5)nc4c2F)N2C[C@H]4CC[C@H](N4)[C@H]2[C@H](C)O3)c1C(F)(F)F; Satisfied
7) Cc1c(F)c(N)cc(-c2nc3c4c(nc(OC[C@]5(CN6CC7(COC7)C6)CC5(F)F)nc4c2F)N2C[C@H]4CC[C@H](N4)[C@H]2[C@H](C)O3)c1C(F)(F)F (mixture of isomers) [165 a]; Satisfied
8) Cc1c(F)c(N)cc(-c2nc3c4c(nc(OC[C@@H]5CCC6CC(F)(F)CCN65)nc4c2F)N2C[C@H]4CC[C@H](N4)[C@H]2[C@H](C)O3)c1C(F)(F)F (single isomer, unassigned) [119 (isomer 2)]; Not satisfied
9) C[C@@H]1Oc2nc(-c3nc(N)c(F)cc3C(F)(F)F)c(F)c3nc(OC[C@]45CCN4CC(F)(F)C5)nc(c23)N2C[C@H]3CC[C@H](N3)[C@@H]12; Not satisfied
10) Cc1c(F)c(N)cc(-c2nc3c4c(nc(OCC5C[C@@H]6C[N@@]5CCO6)nc4c2F)N2C[C@H]4CC[C@H](N4)[C@H]2[C@H](C)O3)c1C(F)(F)F (single isomer, unassigned) [151 (isomer 2)]; Not satisfied
